- System: 429239-143-T-J1-PDC complex spheroid viability;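 note: luminescence signal used as surrogate measure of viable cells; spheroids exposed to compounds for seven days before readout; 100% = DMSO vehicle control viability as luminescence relative to vehicle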
- ASSAY DETAILS: Anticancer human tumor 429239-143-T-J1-PDC patient-derived small cell lung carcinoma cell line growth inhibition [POLQ]
- EXPERIMENTAL CONDITIONS: second compound 0.0316 µM; first compound 10 µM; active compounds read low
The entries below are paired with their reported viability, T/C.
I only need the number, in %, no unit after it.

MOLECULE	RESULT UNIT	READOUT VALUE
COc1ccc([C@@H](O)c2cc(-c3ncnc4cc(N5CCOCC5)ccc34)c(F)cc2Cl)nn1 + Cc1cccc(N(C)C(=O)C2C(O)CCN2c2nc(C)cc(C(F)(F)F)c2C#N)c1	%	10.8
CCc1cc2c(N3CCc4c(cc(Cn5ccnc5)cc4-c4cn(C)nc4C(F)(F)F)C3=O)ccnc2c(OC)n1 + Nc1ccc(C#CCN(C(=O)Cc2ncc(C(F)(F)F)cc2C(F)(F)F)c2ccc(F)cc2)nn1	%	48
CCc1cc2c(N3CCc4c(cc(Cn5ccnc5)cc4-c4cn(C)nc4C(F)(F)F)C3=O)cc(C)nc2c(OC)n1 + Cc1cccc(N(C)C(=O)C2C(O)CCN2c2nc(C)cc(C(F)(F)F)c2C#N)c1	%	48.5
COc1cc2cc(C(=O)CCC(=O)O)sc2cc1OC + Cc1cccc(N(C)C(=O)C2C(O)CCN2c2nc(C)cc(C(F)(F)F)c2C#N)c1	%	89.5

## Task Determine its reported viability, T/C: C=CC(=O)N1CCN(c2nc(=O)n(-c3c(C)ccnc3C(C)C)c3nc(-c4c(O)cccc4F)c(F)cc23)C(C)C1 (stereo not given) + COC1C(OC(N)=O)C(O)C(Oc2ccc3c(O)c(NC(=O)c4ccc(O)c(CC=C(C)C)c4)c(=O)oc3c2C)OC1(C)C
## Result 112

## Task For the molecule C=CC(=O)N1CCN(c2nc(=O)n(-c3c(C)ccnc3C(C)C)c3nc(-c4c(O)cccc4F)c(F)cc23)C(C)C1 (stereo not given) + Nc1ccc(C#CCN(C(=O)Cc2ncc(C(F)(F)F)cc2C(F)(F)F)c2ccc(F)cc2)nn1 , report viability, T/C.
## Result 93.8

## Task Consider the molecule CC1COCCN1c1cc(-c2ccnn2C)c2ccnc(-c3ccn[nH]3)c2n1 (stereo not given) + Cc1cccc(N(C)C(=O)C2C(O)CCN2c2nc(C)cc(C(F)(F)F)c2C#N)c1 . State its measured viability, T/C.
## Result 10.9

## Task Identify viability, T/C associated with the molecule O=C(c1cc(Cc2n[nH]c(=O)c3ccccc23)ccc1F)N1CCN(C(=O)C2CC2)CC1 + Cc1cccc(N(C)C(=O)C2C(O)CCN2c2nc(C)cc(C(F)(F)F)c2C#N)c1
## Result 19.9

## Task Provide only the value of recorded viability, T/C for CC1COCCN1c1cc(C2(O)CC3CCC(C2)O3)c2cnn(-c3ccn[nH]3)c2n1 (stereo not given) + Nc1ccc(C#CCN(C(=O)Cc2ncc(C(F)(F)F)cc2C(F)(F)F)c2ccc(F)cc2)nn1
## Result 2.1

## Task For COc1cc(C2c3cc4c(cc3C(OC3OC5COC(C)OC5C(O)C3O)C3COC(=O)C23)OCO4)cc(OC)c1O (stereo not given) + COC1C(OC(N)=O)C(O)C(Oc2ccc3c(O)c(NC(=O)c4ccc(O)c(CC=C(C)C)c4)c(=O)oc3c2C)OC1(C)C , write its viability, T/C.
## Result 16.6
